Test: In vitro dissolution test, microcentrifuge method, in phosphate buffered saline (PBS) pH 6.5
Format: physicochemical
Conditions: Table 25: Drug 2, PBS, melt-congeal poloxamer dispersions
Quantity Name: AUC90

Which value of AUC90 has been reported for CCOC(=O)N1c2ccc(C(F)(F)F)cc2[C@@H](N(Cc2cc(C(F)(F)F)cc(C(F)(F)F)c2)C(=O)OC)C[C@H]1CC [Control 2] in the records? < 1470 ng·h/mL

* * *

Assay: Solubility in water
Type: physicochemical
Details: 22 °C, crystalline drug, read-out: solubility of crystalline Drug 2 (accurate measurements)
Quantity Name: solubility

Please report the recorded solubility for "CCOC(=O)N1c2ccc(C(F)(F)F)cc2[C@@H](N(Cc2cc(C(F)(F)F)cc(C(F)(F)F)c2)C(=O)OC)C[C@H]1CC" . ~0.01 µg/mL
